Tested on: Escherichia coli
Assay: Antibacterial activity against Escherichia coli CCUGT incubated for 18 to 24 hrs by CLSI based microdilution broth method
Assay type: functional
Details: Escherichia coli, CCUGT; time 18-24 hrs; read-out: MIC
METRIC_NAME: MIC (µg/mL)

Consider the reported MIC for these compounds:
SMILES_STRING | EXPERIMENTAL_VALUE
CNC(=S)NCCCCCCCCN(CCCCCCCCNC(=N)NCC1CC1)C(=O)N(CCCCCCCCNC(=N)NCC1CC1)CCCCCCCCNC(=S)NC.O=C(O)C(F)(F)F | 8
C/C=C/CNC(=N)NCCCCCCCCN(CCCCCCCCNC(=N)N)C(=O)N(CCCCCCCCNC(=N)N)CCCCCCCCNC(=N)NC/C=C/C.O=C(O)C(F)(F)F | 2

1 = N=C(N)NCCCCCCCCN(CCCCCCCCNC(=N)NCC1CC1)C(=O)N(CCCCCCNC(=N)N)CCCCCCNC(=N)NCC1CC1.O=C(O)C(F)(F)F
2 = O=C(O)C(F)(F)F.[N-]=[N+]=NCCCCCCCCN(CCCCCCCCNC(=N)N)C(=O)N(CCCCCCCCN=[N+]=[N-])CCCCCCCCNC(=N)N
3 = CC(C)NC(=N)NCCCCCCCCN(CCCCCCCCNC(=N)N)C(=O)N(CCCCCCCCNC(=N)N)CCCCCCCCNC(=N)NC(C)C.O=C(O)C(F)(F)F
4 = CCNC(=N)NCCCCCCCCN(CCCCCCCCNC(=N)NCC)C(=O)N(CCCCCCCCNC(=N)NCC)CCCCCCCCNC(=N)NCC
Qu. Hey, quick one: sort these by MIC, largest value first please. Form entry: labels listed in requested order.
Ans. 2, 1, 4, 3

###

Test system: Klebsiella pneumoniae
Assay: Antibacterial activity against Klebsiella pneumoniae ATCC 13833 incubated for 18 to 24 hrs by CLSI based microdilution broth method
Assay type: functional
Settings: Klebsiella pneumoniae, ATCC 13833; time 18-24 hrs; read-out: MIC
METRIC_NAME: MIC (µg/mL)

Consider the reported MIC for these compounds:
SMILES_STRING | MIC / µg/mL
O=C(O)C(F)(F)F.[N-]=[N+]=NCCCCCCCCN(CCCCCCCCNC(=N)N)C(=O)N(CCCCCCCCN=[N+]=[N-])CCCCCCCCNC(=N)N | 32
N=C(NCCCCCCCCN(CCCCCCCCNC(=N)NCC1CC1)C(=O)N(CCCCCCNC(=N)NCC1CC1)CCCCCCNC(=N)NCC1CC1)NCC1CC1 | 4
N=C(N)NCCCCCCCCN(CCCCCCCCNC(=N)NCC1CC1)C(=O)N(CCCCCCNC(=N)N)CCCCCCNC(=N)NCC1CC1.O=C(O)C(F)(F)F | 4
CSCCNC(=N)NCCCCCCCCN(CCCCCCCCNC(=N)N)C(=O)N(CCCCCCCCNC(=N)N)CCCCCCCCNC(=N)NCCSC.O=C(O)C(F)(F)F | 4

I = N=C(N)NCCCCCCN(CCCCCCNC(=N)NCC1CC1)C(=O)N(CCCCCCNC(=N)N)CCCCCCNC(=N)NCC1CC1
II = CCNC(=N)NCCCCCCCCN(CCCCCCCCNC(=N)NCC)C(=O)N(CCCCCCCCNC(=N)NCC)CCCCCCCCNC(=N)NCC
III = N=C(N)NCCCCCCCCCN(CCCCCCCCCNC(=N)NCC1CC1)C(=O)N(CCCCCCCCCNC(=N)N)CCCCCCCCCNC(=N)NCC1CC1.O=C(O)C(F)(F)F
Qu. Arrange the 3 compounds by rising MIC, starting with the smallest. Form entry: labels listed in requested order.
Ans. II, III, I
(II: 4 µg/mL, III: 16 µg/mL, I: 32 µg/mL)
